The reported measurements were obtained from patent US10028938B2.

Attribute: IC50
Target: UniProtKB P08492
Format: biochemical, hPIV-3 (strain C-243)
Parameters: rows headed: HI Mean IC50; hPIV-3 HN; 3 independent experiments; fold improvement in HI assay; other: versus 6; hPIV-3 HN HI IC50; other: text; other: text, unit given as M
Conditions: read-out: hPIV-3 HN HI IC50
measurement-label: IC50 (µM)

molecule=COCc1cn([C@H]2C=C(C(=O)O)O[C@@H]([C@H](O)[C@H](O)CO)[C@@H]2NC(C)=O)nn1 tested_target="UniProtKB P08492" measurement_label=IC50 observed=313
molecule="CC(=O)NC1C(O)C=C(C(=O)O)OC1C(O)C(O)CO (stereo not drawn) [Compound 2, Neu5Ac2en, reference compound]" tested_target="UniProtKB P08492" measurement_label=IC50 observed=1440
molecule=CC(=O)N[C@H]1[C@H]([C@H](O)[C@H](O)CO)OC(C(=O)[O-])=C[C@@H]1n1cc(-c2ccccc2)nn1.[Na+] tested_target="UniProtKB P08492" measurement_label=IC50 observed=4.6
molecule="CC(=O)NC1C(N=[N+]=[N-])C=C(C(=O)O)OC1C(O)C(O)CO (stereo not drawn) [Compound 3, 4-azido-4-deoxy-Neu5Ac2en, reference compound]" tested_target="UniProtKB P08492" measurement_label=IC50 observed=210
molecule=COCc1cn([C@H]2C=C(C(=O)O)O[C@@H]([C@H](O)[C@H](O)CO)[C@@H]2NC(=O)C(C)C)nn1 tested_target="UniProtKB P08492" measurement_label=IC50 observed=13.8
molecule="CC(C)C(=O)N[C@H]1[C@H]([C@H](O)[C@H](O)CO)OC(C(=O)O)=C[C@@H]1N=[N+]=[N-] [Compound 6, BCX 2798, reference compound]" tested_target="UniProtKB P08492" measurement_label=IC50 observed=16.1

---

Record type: IC50 measurement. Applies to: hPIV-1 NI (Human parainfluenza 1 virus, UniProt P16071)
measurement-label: IC50 (µM)

compound=CC(=O)N[C@H]1[C@H]([C@H](O)[C@H](O)CO)OC(C(=O)[O-])=C[C@@H]1n1cc(-c2ccccc2)nn1.[Na+] measurement_label=IC50 units_text=µM observed=168
compound="CC(=O)N[C@H]1[C@H]([C@H](O)C(O)CO)OC(C(=O)O)=C[C@@H]1n1cc(-c2ccccc2C(F)(F)F)nn1 (stereo partly shown)" measurement_label=IC50 units_text=µM observed=73.6
compound=CC(=O)N[C@H]1[C@H]([C@H](O)[C@H](O)CO)OC(C(=O)O)=C[C@@H]1n1cc(CC(C)C)nn1 measurement_label=IC50 units_text=µM observed=301
compound=CC(C)C(=O)N[C@H]1[C@H]([C@H](O)[C@H](O)CO)OC(C(=O)O)=C[C@@H]1n1cc2ccccc2c1C#N measurement_label=IC50 units_text=µM observed=6.22

---

Biological target: hPIV-3 HN (Human parainfluenza 3 virus, UniProt P08492)
Sequence (P08492 whole entry): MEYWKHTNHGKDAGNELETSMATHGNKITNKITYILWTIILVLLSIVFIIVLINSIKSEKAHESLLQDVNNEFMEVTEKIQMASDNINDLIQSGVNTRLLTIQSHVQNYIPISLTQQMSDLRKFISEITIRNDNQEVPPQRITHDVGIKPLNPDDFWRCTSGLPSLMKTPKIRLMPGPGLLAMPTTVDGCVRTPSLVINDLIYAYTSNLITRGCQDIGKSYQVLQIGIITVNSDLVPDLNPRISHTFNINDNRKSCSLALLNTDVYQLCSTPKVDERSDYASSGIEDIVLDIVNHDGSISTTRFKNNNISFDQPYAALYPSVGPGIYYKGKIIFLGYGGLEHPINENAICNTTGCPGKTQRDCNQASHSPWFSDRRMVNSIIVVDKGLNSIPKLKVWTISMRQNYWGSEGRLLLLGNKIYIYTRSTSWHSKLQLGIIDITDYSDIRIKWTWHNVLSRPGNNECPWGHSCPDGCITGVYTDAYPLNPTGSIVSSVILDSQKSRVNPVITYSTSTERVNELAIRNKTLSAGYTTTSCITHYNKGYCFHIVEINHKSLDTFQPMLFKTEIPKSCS
Assay type: biochemical, hPIV-3 (strain C-243)
Conditions: text b135; read-out: IC50 values for hPIV-3 HN
pIC50: −log10 of the molar value.
measurement-label: pIC50

molecule="N#Cc1c2ccccc2cn1[C@H]1C=C(C(=O)O)O[C@@H]([C@H](O)[C@H](O)CO)[C@@H]1NC(=O)C(F)(F)F [IE927-99]" tested_target="hPIV-3 HN (Human parainfluenza 3 virus, UniProt P08492)" observed=6.57

---

Molecular target: hPIV-3 HN (UniProt P08492)
Type: biochemical, hPIV-3 (strain C-243)
Design: rows headed: NI hPIV-3 IC50
Details: read-out: NI hPIV-3 IC50
pIC50: −log10 of the molar value.
measurement-label: pIC50

compound="CC(C)C(=O)N[C@H]1[C@H]([C@H](O)[C@H](O)CO)OC(C(=O)O)=C[C@@H]1N=[N+]=[N-] [Compound 6, BCX 2798, reference compound]" measurement_label=pIC50 observed=4.74

---

Test system: hPIV-3
Assay: In situ ELISA virus growth inhibition
Type: cell-based, hPIV-3 (strain C-243)
Conditions: Human respirovirus 3; Table 4; A549 cells, hPIV-3; read-out: Cell-based ELISA IC50
pIC50: −log10 of the molar value.
measurement-label: pIC50

compound="CC(C)C(=O)NC1C(N=[N+]=[N-])C(F)C(F)(C(=O)O)OC1[C@H](O)[C@H](O)CO (stereo partly drawn)" observed=4.85
compound="COCc1cn(C2C(NC(=O)C(C)C)C(C(O)C(O)CO)OC(F)(C(=O)O)C2F)nn1 (stereo not drawn)" observed=4.60
compound="CC(C)C(=O)NC1C([C@H](O)[C@H](O)CO)OC(F)(C(=O)O)C(F)C1n1cc(-c2ccccc2)nn1 (stereo partly drawn)" observed=4.35

---

Molecular target: hPIV-3 HN (UniProt P08492)
Format: biochemical, hPIV-3 (strain C-243)
Design: rows headed: NI Mean IC50; hPIV-3 HN; 3 independent experiments; Ki; Km value for MUN; other: whole hPIV-3 virus, [I]=0; fold improvement in NI assay; other: versus 6; hPIV-3 HN NI IC50; other: text; other: text, unit given as M
Conditions: Table 2 prints no unit, μM; hPIV-3 HN; 3 independent experiments; read-out: NI Mean IC50
measurement-label: IC50 (µM)

compound=COCc1cn([C@H]2C=C(C(=O)O)O[C@@H]([C@H](O)[C@H](O)CO)[C@@H]2NC(C)=O)nn1 tested_target="hPIV-3 HN (UniProt P08492)" observed=154
compound="CC(C)C(=O)NC1C(O)C=C(C(=O)O)OC1C(O)C(O)CO (centres unmarked) [Compound 5, reference compound]" tested_target="hPIV-3 HN (UniProt P08492)" observed=188
compound=COCc1cn([C@H]2C=C(C(=O)O)O[C@@H]([C@H](O)[C@H](O)CO)[C@@H]2NC(=O)C(C)C)nn1 tested_target="hPIV-3 HN (UniProt P08492)" observed=14.2
compound="CC(=O)NC1C(N=[N+]=[N-])C=C(C(=O)O)OC1C(O)C(O)CO (centres unmarked) [Compound 3, 4-azido-4-deoxy-Neu5Ac2en, reference compound]" tested_target="hPIV-3 HN (UniProt P08492)" observed=138
compound=CC(=O)N[C@H]1[C@H]([C@H](O)[C@H](O)CO)OC(C(=O)[O-])=C[C@@H]1n1cc(-c2ccccc2)nn1.[Na+] tested_target="hPIV-3 HN (UniProt P08492)" observed=6.51

---

Attribute: IC50
Target: hPIV-3 HN (UniProt P08492)
Format: biochemical, hPIV-3 (strain C-243)
Design: rows headed: NI hPIV-3 IC50
Settings: Table 4; read-out: NI hPIV-3 IC50
measurement-label: IC50 (µM)

molecule="COCc1cn(C2C(NC(=O)C(C)C)C(C(O)C(O)CO)OC(F)(C(=O)O)C2F)nn1 (stereo not drawn) [I-104]" measurement_label=IC50 units_text=µM observed=4
molecule="CC(C)C(=O)NC1C(N=[N+]=[N-])C(F)C(F)(C(=O)O)OC1[C@H](O)[C@H](O)CO (stereo partly drawn) [I-70]" measurement_label=IC50 units_text=µM observed=6
molecule="CC(C)C(=O)NC1C([C@H](O)[C@H](O)CO)OC(F)(C(=O)O)C(F)C1n1cc(-c2ccccc2)nn1 (stereo partly drawn) [I-79]" measurement_label=IC50 units_text=µM observed=63

---

Attribute: log10 IC50
Target: hPIV-1 NI (Human parainfluenza 1 virus, UniProt P16071)
Sequence (P16071 whole entry): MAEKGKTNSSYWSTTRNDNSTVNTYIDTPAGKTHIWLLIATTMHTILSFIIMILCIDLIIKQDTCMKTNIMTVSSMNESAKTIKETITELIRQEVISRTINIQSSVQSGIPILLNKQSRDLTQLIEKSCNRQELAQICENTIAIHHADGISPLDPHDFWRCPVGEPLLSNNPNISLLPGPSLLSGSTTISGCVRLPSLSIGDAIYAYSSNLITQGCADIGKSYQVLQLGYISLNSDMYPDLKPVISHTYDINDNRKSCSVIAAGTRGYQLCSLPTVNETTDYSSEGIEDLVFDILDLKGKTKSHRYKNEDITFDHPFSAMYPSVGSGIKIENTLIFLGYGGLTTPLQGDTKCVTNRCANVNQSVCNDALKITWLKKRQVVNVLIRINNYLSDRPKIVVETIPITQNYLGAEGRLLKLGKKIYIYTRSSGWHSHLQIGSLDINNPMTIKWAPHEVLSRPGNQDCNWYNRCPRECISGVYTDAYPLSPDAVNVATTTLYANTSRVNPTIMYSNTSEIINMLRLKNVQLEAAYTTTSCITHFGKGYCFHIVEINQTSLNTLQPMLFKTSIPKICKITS
measurement-label: log10 IC50 (log10 of the value in µM)

compound="COCc1cnnn1[C@H]1C=C(C(=O)O)O[C@@H]([C@H](O)C(O)CO)[C@@H]1NC(C)=O (some centres unmarked)" tested_target="hPIV-1 NI (Human parainfluenza 1 virus, UniProt P16071)" observed=1.97
compound="COCc1cn(C2C(F)[C@](F)(C(=O)O)OC([C@H](O)[C@H](O)CO)[C@@H]2NC(=O)C(C)C)nn1 (some centres unmarked)" tested_target="hPIV-1 NI (Human parainfluenza 1 virus, UniProt P16071)" observed=-0.44
compound=COCc1cn([C@H]2C=C(C(=O)O)O[C@@H]([C@H](O)[C@H](O)CO)[C@@H]2NC(=O)C(C)C)nn1 tested_target="hPIV-1 NI (Human parainfluenza 1 virus, UniProt P16071)" observed=-0.31
compound=COc1cccc(-c2cn([C@H]3C=C(C(=O)O)O[C@@H]([C@H](O)[C@H](O)CO)[C@@H]3NC(C)=O)nn2)c1 tested_target="hPIV-1 NI (Human parainfluenza 1 virus, UniProt P16071)" observed=2.29
compound=CC(=O)N[C@H]1[C@H]([C@H](O)[C@H](O)CO)OC(C(=O)O)=C[C@@H]1n1cnnn1 tested_target="hPIV-1 NI (Human parainfluenza 1 virus, UniProt P16071)" observed=0.87
compound=CC(=O)N[C@H]1[C@H]([C@H](O)[C@H](O)CO)OC(C(=O)O)=C[C@@H]1n1cc2ccccc2c1C#N tested_target="hPIV-1 NI (Human parainfluenza 1 virus, UniProt P16071)" observed=1.23
compound=CC(C)C(=O)N[C@H]1[C@H]([C@H](O)[C@H](O)CO)OC(C(=O)O)=C[C@@H]1n1cnnn1 tested_target="hPIV-1 NI (Human parainfluenza 1 virus, UniProt P16071)" observed=-0.80
compound=N#Cc1c2ccccc2cn1[C@H]1C=C(C(=O)O)O[C@@H]([C@H](O)[C@H](O)CO)[C@@H]1NC(=O)C(F)(F)F tested_target="hPIV-1 NI (Human parainfluenza 1 virus, UniProt P16071)" observed=0.49
compound=COCc1cn([C@H]2C=C(C(=O)O)O[C@@H]([C@H](O)[C@H](O)CO)[C@@H]2NC(C)=O)nn1 tested_target="hPIV-1 NI (Human parainfluenza 1 virus, UniProt P16071)" observed=1.30
compound="CC(=O)N[C@H]1[C@H]([C@H](O)C(O)CO)OC(C(=O)O)=C[C@@H]1n1cc(-c2ccccc2Br)nn1 (some centres unmarked)" tested_target="hPIV-1 NI (Human parainfluenza 1 virus, UniProt P16071)" observed=1.40
compound="CC(=O)N[C@H]1[C@H]([C@H](O)C(O)CO)OC(C(=O)O)=C[C@@H]1n1cc(-c2ccccc2C)nn1 (some centres unmarked)" tested_target="hPIV-1 NI (Human parainfluenza 1 virus, UniProt P16071)" observed=1.76
compound="CC(=O)N[C@H]1[C@H]([C@H](O)C(O)CO)OC(C(=O)O)=C[C@@H]1n1cc(-c2ccccc2Cl)nn1 (some centres unmarked)" tested_target="hPIV-1 NI (Human parainfluenza 1 virus, UniProt P16071)" observed=1.88
compound=CC(=O)N[C@H]1[C@H]([C@H](O)[C@H](O)CO)OC(C(=O)O)=C[C@@H]1n1cc(-c2ccc(CO)cc2)nn1 tested_target="hPIV-1 NI (Human parainfluenza 1 virus, UniProt P16071)" observed=2.33
compound="CC(=O)N[C@H]1[C@H]([C@H](O)C(O)CO)OC(C(=O)O)=C[C@@H]1n1nnc(-c2ccccc2)c1-c1ccccc1 (some centres unmarked)" tested_target="hPIV-1 NI (Human parainfluenza 1 virus, UniProt P16071)" observed=2.90
